Test: Half life in cynomolgus monkey at 3 mg/kg, po
Format: ADME, organism-based, Macaca fascicularis
Set-up: dose 3 mg/kg, route oral
Conditions: in vivo
value.kind: half-life (h)
Write the answer as a number in h, unit excluded.

**Query** Specify half-life for O=C(N[C@H](CO)c1ccc(Cl)c(F)c1)N1CCc2cnc(NC3CCOCC3)nc2C1 and stop.
**Result** 5.2

---

Experiment: Tmax in NCR nude mouse at 150 mg/kg, po
Type: ADME, organism-based
Set-up: dose 150 mg/kg, route oral
Conditions: in vivo
value.kind: Tmax (min)
All answers are understood in min, so give the number only.

**Query** Recall and state the measured Tmax for O=C(N[C@H](CO)c1ccc(Cl)c(F)c1)N1CCc2cnc(NC3CCOCC3)nc2C1 .
**Result** 15

---

Test: AUC (0 to infinity) in NCR nude mouse at 30 mg/kg, po
Format: ADME, organism-based
Parameters: time infinity, dose 30 mg/kg, route oral
Conditions: plasma
value.kind: AUC(0-inf) (µM·h)
Could you give me the number in µM·h? Just the number is fine.

**Query** Determine its reported AUC(0-inf): O=C(N[C@H](CO)c1ccc(Cl)c(F)c1)N1CCc2cnc(NC3CCOCC3)nc2C1
**Result** 4.81

---

Experiment: Clearance in Sprague-Dawley rat at 1 mg/kg, iv
Assay type: ADME, organism-based
Set-up: dose 1 mg/kg, route intravenous
Details: in vivo
value.kind: clearance (L/h/kg)
Numeric only. Scale: L/h/kg

**Query** Query clearance for O=C(N[C@H](CO)c1ccc(Cl)c(F)c1)N1CCc2cnc(NC3CCOCC3)nc2C1
**Result** 6.24

---

Test: Antiproliferative activity against human HCT116 cells expressing K-Ras […] mutant after 72 hrs by Cell-Titre Blue assay
Format: functional, cell-based
Conditions: HCT-116, 72 h
value.kind: pEC50
The value called pEC50 is obtained by taking minus log10 of the concentration in mol/L.

**Query** Recall and state the measured pEC50 for O=C(N[C@H](CO)c1ccc(Cl)c(F)c1)N1CCc2cnc(NC3CCOCC3)nc2C1 .
**Result** 6.13

---

Experiment: Cmax in beagle dog at 2 mg/kg, po
Format: ADME, organism-based, Canis lupus familiaris
Set-up: dose 2 mg/kg, route oral
Conditions: in vivo
value.kind: Cmax (nM)
Please state the figure in nM; there is no need to write the unit.

**Query** # return recorded Cmax for entry O=C(N[C@H](CO)c1ccc(Cl)c(F)c1)N1CCc2cnc(NC3CCOCC3)nc2C1
**Result** 590

---

Assay: AUC (0 to infinity) in Sprague-Dawley rat at 5 mg/kg, po
Assay type: ADME, organism-based
Design: time infinity, dose 5 mg/kg, route oral
Conditions: plasma
value.kind: AUC(0-inf)
Put your answer as a value accompanied by its unit after it.

**Query** In one line, give reported AUC(0-inf) of the entry O=C(N[C@H](CO)c1ccc(Cl)c(F)c1)N1CCc2cnc(NC3CCOCC3)nc2C1 .
**Result** 0.2 µM·h

---

Experiment: Half life in Sprague-Dawley rat at 5 mg/kg, po
Assay type: ADME, organism-based
Parameters: dose 5 mg/kg, route oral
Settings: in vivo
value.kind: half-life (h)
Express your answer in h, writing the number without its unit.

**Query** Report measured half-life; entry is O=C(N[C@H](CO)c1ccc(Cl)c(F)c1)N1CCc2cnc(NC3CCOCC3)nc2C1
**Result** 1.7

Origin of measurements: ChEMBL document CHEMBL3297705
